Assay type: cell-based
Settings: human, Huh-7.5 cells
MEASURE_NAME: CC50

>>> recorded_measurement("CCCCCNc1nc(Nc2ccc([N+](=O)[O-])cc2)nc(OCC(F)(F)F)n1 [EI-1]")
"> 50 µM"

---

System: VSVpp
Experiment: microbe, parasite or virus in culture
Format: cell-based
Conditions: Vesicular stomatitis virus, Huh-H1, read-out: EC50 VSVpp
MEASURE_NAME: EC50 (µM)

>>> recorded_measurement("CCCCCNc1nc(Nc2ccc([N+](=O)[O-])cc2)nc(OCC(F)(F)F)n1")
33

The measurements presented in this section are drawn from paper PMC2936744.
